Data provenance is patent US20240376185A1.

Target: tetanus neurotoxin (TeNT), authentic tetanus holotoxin (Clostridium tetani, UniProt P04958 2-1315)
Sequence (P04958 2-457 limits assumed, chain 1 of 2): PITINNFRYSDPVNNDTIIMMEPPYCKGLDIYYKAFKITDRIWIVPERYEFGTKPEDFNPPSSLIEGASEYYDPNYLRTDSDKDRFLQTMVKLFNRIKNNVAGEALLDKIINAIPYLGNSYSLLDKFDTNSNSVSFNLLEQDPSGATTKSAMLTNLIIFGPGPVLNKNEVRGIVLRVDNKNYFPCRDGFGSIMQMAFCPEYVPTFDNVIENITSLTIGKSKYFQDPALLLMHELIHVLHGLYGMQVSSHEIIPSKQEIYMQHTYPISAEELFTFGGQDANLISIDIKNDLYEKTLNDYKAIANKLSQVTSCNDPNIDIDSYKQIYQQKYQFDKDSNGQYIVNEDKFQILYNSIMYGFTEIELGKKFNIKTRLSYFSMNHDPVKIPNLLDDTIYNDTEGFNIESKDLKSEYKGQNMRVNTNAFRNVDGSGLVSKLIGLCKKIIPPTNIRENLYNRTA
Sequence (P04958 458-1315 limits assumed, chain 2 of 2): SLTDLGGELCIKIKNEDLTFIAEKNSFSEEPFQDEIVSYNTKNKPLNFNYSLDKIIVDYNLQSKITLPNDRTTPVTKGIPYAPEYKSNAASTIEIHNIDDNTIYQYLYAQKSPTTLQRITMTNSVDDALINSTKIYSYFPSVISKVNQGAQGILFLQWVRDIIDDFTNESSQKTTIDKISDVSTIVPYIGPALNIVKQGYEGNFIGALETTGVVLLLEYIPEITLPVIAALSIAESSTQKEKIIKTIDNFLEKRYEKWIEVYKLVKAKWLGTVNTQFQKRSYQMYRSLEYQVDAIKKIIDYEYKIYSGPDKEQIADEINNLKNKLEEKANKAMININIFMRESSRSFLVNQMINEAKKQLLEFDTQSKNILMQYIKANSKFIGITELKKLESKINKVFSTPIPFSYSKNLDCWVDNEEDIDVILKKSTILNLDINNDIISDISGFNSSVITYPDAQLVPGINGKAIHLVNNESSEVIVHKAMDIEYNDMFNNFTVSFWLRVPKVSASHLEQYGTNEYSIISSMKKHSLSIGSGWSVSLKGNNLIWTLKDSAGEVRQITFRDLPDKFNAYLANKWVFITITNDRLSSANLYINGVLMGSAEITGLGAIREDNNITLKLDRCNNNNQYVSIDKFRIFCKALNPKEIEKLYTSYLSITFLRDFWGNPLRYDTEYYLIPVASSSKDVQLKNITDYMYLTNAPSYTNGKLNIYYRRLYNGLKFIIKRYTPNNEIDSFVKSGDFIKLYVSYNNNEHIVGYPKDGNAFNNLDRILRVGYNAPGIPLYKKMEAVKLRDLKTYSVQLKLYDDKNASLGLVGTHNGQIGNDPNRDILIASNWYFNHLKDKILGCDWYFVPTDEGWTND
Test: competition ELISA on TeNT, binder biotinylated; competitor SVT08L; further: test concentration or dose not given here
Measured parameter: % inhibition of binding (%)
One number for each entry, in %.

Given item SVT22L (VHH) VHH: QVQLQESGGGLVQAGESLRLSCTASGISFDDYAIGWFRQAPGQQRKGVACISKADGRTDYLGSVKGRFTLSTDNTKNTVHLQMNNLKPEDTALYTCAAEYKSCGMGYKPIDYWGQGMQVTVSS , the value recorded as its % inhibition of binding is 1

API: the following record is the query input.
Record summary for SVT15L (VHH) VHH: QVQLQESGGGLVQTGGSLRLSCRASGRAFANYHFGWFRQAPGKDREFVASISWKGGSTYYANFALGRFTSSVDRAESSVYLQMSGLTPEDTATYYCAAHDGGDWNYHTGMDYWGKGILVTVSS : reported % inhibition of binding = 15
